System: Mus musculus
Test: Number of mice surviving for a period greater than 50 days when a dose of 30 mg/Kg is administered intraperitoneally; tested in 5 mice
Assay type: functional
Items are presented alongside their recorded Survivals.
endpoint-name: Survivals

>>> result_number("O=C1C(N2CC2)=C(N2CC2)C(=O)c2c(OS(=O)(=O)c3ccc([N+](=O)[O-])cc3)cccc21")
4
>>> result_number("CCCCS(=O)(=O)Oc1cccc2c1C(=O)C(N1CC1)=C(N1CC1)C2=O")
0
>>> result_number("COc1ccc(S(=O)(=O)Oc2cccc3c2C(=O)C(N2CC2)=C(N2CC2)C3=O)cc1")
3
>>> result_number("O=C1C(N2CC2)=C(N2CC2)C(=O)c2c(OS(=O)(=O)c3ccc(Cl)cc3)cccc21")
3
>>> result_number("Cc1cc(C)c(S(=O)(=O)Oc2cccc3c2C(=O)C(N2CC2)=C(N2CC2)C3=O)c(C)c1")
0
>>> result_number("O=C1C(N2CC2)=C(N2CC2)C(=O)c2c(OS(=O)(=O)c3ccccc3)cccc21")
4
>>> result_number("O=C1C(N2CC2)=C(N2CC2)C(=O)c2c(OS(=O)(=O)c3ccc(F)cc3)cccc21")
5
>>> result_number("O=C1C(N2CC2)=C(N2CC2)C(=O)c2c(OS(=O)(=O)CCCCl)cccc21")
0
>>> result_number("O=C1C(N2CC2)=C(N2CC2)C(=O)c2c(OS(=O)(=O)c3cccc4cccnc34)cccc21")
3
>>> result_number("Cc1ccc(S(=O)(=O)Oc2cccc3c2C(=O)C=C(N2CC2)C3=O)cc1")
0
>>> result_number("CN(C)c1cccc2c(S(=O)(=O)Oc3cccc4c3C(=O)C(N3CC3)=C(N3CC3)C4=O)cccc12")
0
>>> result_number("O=C1C(N2CC2)=C(N2CC2)C(=O)c2c(OS(=O)(=O)c3ccc(Br)cc3)cccc21")
0
>>> result_number("O=C1C(N2CC2)=C(N2CC2)C(=O)c2c(OS(=O)(=O)/C=C/c3ccccc3)cccc21")
0
>>> result_number("O=C1C(N2CC2)=C(N2CC2)C(=O)c2c(OS(=O)(=O)c3ccc(I)cc3)cccc21")
0
>>> result_number("CS(=O)(=O)Oc1cccc2c1C(=O)C(N1CC1)=C(N1CC1)C2=O")
2
>>> result_number("O=C1C(N2CC2)=C(N2CC2)C(=O)c2c(OS(=O)(=O)c3cccs3)cccc21")
5
>>> result_number("CC1(C)C2CCC1(CS(=O)(=O)Oc1cccc3c1C(=O)C(N1CC1)=C(N1CC1)C3=O)C(=O)C2 (centres undefined)")
0
>>> result_number("CCc1ccc(S(=O)(=O)Oc2cccc3c2C(=O)C(N2CC2)=C(N2CC2)C3=O)cc1")
0
>>> result_number("O=C1C(N2CC2)=C(N2CC2)C(=O)c2c(OS(=O)(=O)c3cccc4ccccc34)cccc21")
0
>>> result_number("CCCCCCCCCCCCCCCCS(=O)(=O)Oc1cccc2c1C(=O)C(N1CC1)=C(N1CC1)C2=O")
0
>>> result_number("O=C1C(N2CC2)=C(N2CC2)C(=O)c2c(OS(=O)(=O)c3ccc([N+](=O)[O-])cc3[N+](=O)[O-])cccc21")
0
>>> result_number("CC(C)(C)c1ccc(S(=O)(=O)Oc2cccc3c2C(=O)C(N2CC2)=C(N2CC2)C3=O)cc1")
0
>>> result_number("O=C1C(N2CC2)=C(N2CC2)C(=O)c2c(OS(=O)(=O)Cc3ccccc3)cccc21")
0
>>> result_number("CC(C)c1cc(C(C)C)c(S(=O)(=O)Oc2cccc3c2C(=O)C(N2CC2)=C(N2CC2)C3=O)c(C(C)C)c1")
0

* * *

Items are presented alongside their recorded Average change in body weight.
Tested on: Mus musculus
Assay: Average change in weight in mice bearing the L1210 Leukemia, when compound (20 mg/kg) was administered once daily beginning 24 hr after tumor implantation, for 6 consecutive days.
Assay type: functional
endpoint-name: Average change in body weight (%)

>>> result_number("O=C1C(N2CC2)=C(N2CC2)C(=O)c2c(OS(=O)(=O)c3cccc4cccnc34)cccc21")
-6.6
>>> result_number("O=C1C(N2CC2)=C(N2CC2)C(=O)c2c(OS(=O)(=O)c3ccc(F)cc3)cccc21")
0.3
>>> result_number("O=C1C(N2CC2)=C(N2CC2)C(=O)c2c(OS(=O)(=O)/C=C/c3ccccc3)cccc21")
-3.5
>>> result_number("O=C1C(N2CC2)=C(N2CC2)C(=O)c2c(OS(=O)(=O)c3ccc([N+](=O)[O-])cc3[N+](=O)[O-])cccc21")
2.3
>>> result_number("CCc1ccc(S(=O)(=O)Oc2cccc3c2C(=O)C(N2CC2)=C(N2CC2)C3=O)cc1")
8.4
>>> result_number("Cc1ccc(S(=O)(=O)Oc2cccc3c2C(=O)C=C(N2CC2)C3=O)cc1")
7.3
>>> result_number("CC1(C)C2CCC1(CS(=O)(=O)Oc1cccc3c1C(=O)C(N1CC1)=C(N1CC1)C3=O)C(=O)C2 (centres undefined)")
-9.3
>>> result_number("Cc1cc(C)c(S(=O)(=O)Oc2cccc3c2C(=O)C(N2CC2)=C(N2CC2)C3=O)c(C)c1")
-0.4
>>> result_number("O=C1C(N2CC2)=C(N2CC2)C(=O)c2c(OS(=O)(=O)c3cccs3)cccc21")
-2.3

* * *

Tested on: Mus musculus
Test: Average change in weight in mice bearing the L1210 Leukemia, when compound (20 mg/kg) was administered once daily beginning 24 hr after tumor implantation, for 6 consecutive days.
Type: functional
Items are presented alongside their recorded Average change in body weight.
endpoint-name: Average change in body weight (%)

>>> result_number("CC(C)(C)c1ccc(S(=O)(=O)Oc2cccc3c2C(=O)C(N2CC2)=C(N2CC2)C3=O)cc1")
12.8
>>> result_number("O=C1C(N2CC2)=C(N2CC2)C(=O)c2c(OS(=O)(=O)c3ccc(I)cc3)cccc21")
14.6
>>> result_number("CC(C)c1cc(C(C)C)c(S(=O)(=O)Oc2cccc3c2C(=O)C(N2CC2)=C(N2CC2)C3=O)c(C(C)C)c1")
7.8
>>> result_number("Cc1ccc(S(=O)(=O)Oc2cccc3c2C(=O)C(N2CC2)=C(N2CC2)C3=O)cc1")
-2.2
>>> result_number("O=C1C(N2CC2)=C(N2CC2)C(=O)c2c(OS(=O)(=O)c3ccc([N+](=O)[O-])cc3)cccc21")
-11.1
>>> result_number("COc1ccc(S(=O)(=O)Oc2cccc3c2C(=O)C(N2CC2)=C(N2CC2)C3=O)cc1")
-0.1
>>> result_number("O=C1C(N2CC2)=C(N2CC2)C(=O)c2c(OS(=O)(=O)CCCCl)cccc21")
-7.5
>>> result_number("CCCCS(=O)(=O)Oc1cccc2c1C(=O)C(N1CC1)=C(N1CC1)C2=O")
0.1
>>> result_number("O=C1C(N2CC2)=C(N2CC2)C(=O)c2c(OS(=O)(=O)Cc3ccccc3)cccc21")
2.4

* * *

Tested on: Mus musculus
Experiment: Average change in weight in mice bearing the B16 Melanoma, when compound(100 mg/kg) was administered beginning 24 hr after tumor implantation, daily once for 6 consecutive days.
Type: functional
Items are presented alongside their recorded Average change in body weight.
endpoint-name: Average change in body weight

>>> result("O=C1C(N2CC2)=C(N2CC2)C(=O)c2c(OS(=O)(=O)c3ccc(F)cc3)cccc21")
"-14.3%"
>>> result("O=C1C(N2CC2)=C(N2CC2)C(=O)c2c(OS(=O)(=O)c3ccc(Br)cc3)cccc21")
"2.5%"
>>> result("O=C1C(N2CC2)=C(N2CC2)C(=O)c2c(OS(=O)(=O)c3ccc(I)cc3)cccc21")
"0.6%"
>>> result("O=C1C(N2CC2)=C(N2CC2)C(=O)c2c(OS(=O)(=O)c3cccs3)cccc21")
"-18.2%"
>>> result("O=C1C(N2CC2)=C(N2CC2)C(=O)c2c(OS(=O)(=O)c3ccccc3)cccc21")
"-12.3%"
>>> result("Cc1ccc(S(=O)(=O)Oc2cccc3c2C(=O)C(N2CC2)=C(N2CC2)C3=O)cc1")
"-1.9%"
>>> result("O=C1C(N2CC2)=C(N2CC2)C(=O)c2c(OS(=O)(=O)c3ccc(Cl)cc3)cccc21")
"-2.5%"
>>> result("O=C1C(N2CC2)=C(N2CC2)C(=O)c2c(OS(=O)(=O)c3cccc4cccnc34)cccc21")
"-8.2%"
>>> result("COc1ccc(S(=O)(=O)Oc2cccc3c2C(=O)C(N2CC2)=C(N2CC2)C3=O)cc1")
"-12.4%"

* * *

Test system: L1210
Experiment: Number L1210 (murine leukemia) inoculated mice surviving for >50 days following 25 mg/kg i.p.
Assay type: functional, Mus musculus
Conditions: route intraperitoneal
endpoint-name: Survivals

>>> result_number("Cc1cc(C)c(S(=O)(=O)Oc2cccc3c2C(=O)C(N2CC2)=C(N2CC2)C3=O)c(C)c1")
0
>>> result_number("CCCCCCCCCCCCCCCCS(=O)(=O)Oc1cccc2c1C(=O)C(N1CC1)=C(N1CC1)C2=O")
0
>>> result_number("O=C1C(N2CC2)=C(N2CC2)C(=O)c2c(OS(=O)(=O)c3ccc(I)cc3)cccc21")
0
>>> result_number("CS(=O)(=O)Oc1cccc2c1C(=O)C(N1CC1)=C(N1CC1)C2=O")
4
>>> result_number("O=C1C(N2CC2)=C(N2CC2)C(=O)c2c(OS(=O)(=O)c3cccc4ccccc34)cccc21")
0
>>> result_number("O=C1C(N2CC2)=C(N2CC2)C(=O)c2c(OS(=O)(=O)c3ccc([N+](=O)[O-])cc3[N+](=O)[O-])cccc21")
0
>>> result_number("O=C1C(N2CC2)=C(N2CC2)C(=O)c2c(OS(=O)(=O)/C=C/c3ccccc3)cccc21")
0
>>> result_number("CN(C)c1cccc2c(S(=O)(=O)Oc3cccc4c3C(=O)C(N3CC3)=C(N3CC3)C4=O)cccc12")
0
>>> result_number("O=C1C(N2CC2)=C(N2CC2)C(=O)c2c(OS(=O)(=O)c3ccc(Cl)cc3)cccc21")
0
>>> result_number("O=C1C(N2CC2)=C(N2CC2)C(=O)c2c(OS(=O)(=O)CCCCl)cccc21")
0
>>> result_number("O=C1C(N2CC2)=C(N2CC2)C(=O)c2c(OS(=O)(=O)c3ccccc3)cccc21")
5
>>> result_number("CC(C)(C)c1ccc(S(=O)(=O)Oc2cccc3c2C(=O)C(N2CC2)=C(N2CC2)C3=O)cc1")
0
>>> result_number("O=C1C(N2CC2)=C(N2CC2)C(=O)c2c(OS(=O)(=O)c3cccc4cccnc34)cccc21")
4
>>> result_number("O=C1C(N2CC2)=C(N2CC2)C(=O)c2c(OS(=O)(=O)c3cccs3)cccc21")
5
>>> result_number("CCCCS(=O)(=O)Oc1cccc2c1C(=O)C(N1CC1)=C(N1CC1)C2=O")
0
>>> result_number("CCc1ccc(S(=O)(=O)Oc2cccc3c2C(=O)C(N2CC2)=C(N2CC2)C3=O)cc1")
0
>>> result_number("O=C1C(N2CC2)=C(N2CC2)C(=O)c2c(OS(=O)(=O)Cc3ccccc3)cccc21")
0
>>> result_number("CC(C)c1cc(C(C)C)c(S(=O)(=O)Oc2cccc3c2C(=O)C(N2CC2)=C(N2CC2)C3=O)c(C(C)C)c1")
0
